# Tested on: of the 3T3-F442A cell line
# Test Protocol: Test model according to Hazen et al.: formation of acid-soluble metabolic products of the citric acid cycle
# Format: cell-based
# Experimental Context: Adipocyte; rat adipocytes of the 3T3-F442A cell line; read-out: inhibitory effect on the formation of acid-soluble metabolic products of the citric acid cycle (IC50)
# Excerpt: In a second embodiment of the method according to the invention, compounds suitable for the treatment and/or prophylaxis of obesity can be discovered by selecting those compounds which are capable of reducing the amount of metabolic products formed in the citric acid cycle of isolated living mammalian cells or of lipidic secondary products of the citric acid cycle. […] Citrate is preferred. […]
pIC50: −log10 of the molar value.
Property Measured: pIC50

- CC1(C)O[C@@H]2[C@@H](CO[C@@]3(COS(N)(=O)=O)OC(C)(C)O[C@@H]23)O1 [topiramate]: 6.46

Cited source: patent US7282325B2
